Target: catalytic kinase (JH1) domain of human JAK2 (Homo sapiens)
Construct: Catalytic activities of recombinant JAK2, JAK3 and TYK2 kinase domain
Sequence (O60674 849-1124 limits assumed): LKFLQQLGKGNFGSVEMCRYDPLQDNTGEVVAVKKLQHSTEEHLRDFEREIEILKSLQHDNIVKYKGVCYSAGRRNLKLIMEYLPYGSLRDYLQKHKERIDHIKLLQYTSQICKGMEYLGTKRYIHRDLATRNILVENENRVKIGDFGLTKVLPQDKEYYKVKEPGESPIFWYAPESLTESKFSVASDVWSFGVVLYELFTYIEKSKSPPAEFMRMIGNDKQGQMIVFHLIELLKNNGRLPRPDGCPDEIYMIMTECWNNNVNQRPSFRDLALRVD
Assay: ADP-Glo kinase assay, JAK2 kinase domain
Format: biochemical
Conditions: 0.2 nM recombinant JAK2 kinase domain, 50 μM JAK3-974 peptide, 15 μM ATP, 100 minutes; read-out: JAK2 biochem IC50 (nM) Mean
Procedure: As summarized in Table 3 below, compounds of the disclosure were assessed for their ability to inhibit TYK2, JAK1, JAK2, and JAK3 activity. The kinase activity of recombinantly generated catalytic kinase (also known as JH1) domain of human JAK1, JAK2, JAK3 and TYK2 were evaluated in a plate-based assay using the ADP-Glo™ Kinase Assay platform. […]
Labelling field: enter t if recorded IC50 is less than 300 nM. Enter f if it equals or exceeds that cut-off.

Use these answered entries as a reference point.
molecule | cat
Cn1cc(-c2cc3c(N4CC5CCC(C4)N5C4CC(F)(F)C4)ccnn3c2)cn1 [Example 52] | t
CO[C@H]1C[C@H](N2C3CCC2CN(c2ccnc4[nH]c(-c5cnn(C)c5)nc24)C3)C1 [Example 5] | f
Cn1cc(-c2nc3c(N4CC5CCC(C4)N5[C@H]4C[C@](C)(C#N)C4)ccnc3[nH]2)cn1 [Example 1] | t
Cn1cc(-c2cc3c(N4CC5CCC(C4)N5[C@H]4C[C@@H](O)C4)ccnn3c2)cn1 [Example 32] | f
CO[C@H]1C[C@H](N2C3CCC2CN(c2ccnn4cc(-c5cnn(C)c5)cc24)C3)C1 [Example 29] | f

Then there is this molecule:
# input Say whether its IC50 is strictly beneath 300 nM. Entry: Cn1cc(-c2nc3c(N4CC5CCC(C4)N5[C@H]4CC[C@@H]4O)ccnc3[nH]2)cn1 (single isomer, unassigned) [Example 7]
# output f
